These entries and their values trace back to paper PMC10012268.

tested on: Pf SB1-A6 strain with a CNV (∼2-fold) and a C276F mutation in DHODH; assay: SB1-A6 asexual-stage assay; assay type: cell-based; conditions: Plasmodium falciparum, 72 h, read-out: SB1-A6 EC50
endpoint-name: pEC50
Give bare numbers, as −log10 of the molar value.

CCn1cc(-c2nc(C)no2)c(=O)c2cc(F)c(N3CCC(C)CC3)cc21 ... 5.74

Moving on to another compound below.
Query: Identify measured pEC50 corresponding to "CCn1cc(-c2nc(C)no2)c(=O)c2cc(F)c(N3CCC(Cc4ccccc4)CC3)cc21"
Response: 6.32

---

experiment: Hepatocyte stability, rat; format: in vitro ADME; conditions: pooled rat hepatocytes
Kindly state hepatocyte CLint at 1 μM for each of the entries shown.
Give bare numbers, in µL/min/1e6 cells.

CCn1cc(-c2nc(C)no2)c(=O)c2cc(F)c(N3CCC(Cc4ccccc4)CC3)cc21 [Compound 41] ... 24.7

Moving on to another compound below.
Query: Identify measured hepatocyte CLint at 1 μM corresponding to CCn1cc(-c2nc(C)no2)c(=O)c2cc(F)c(N3CCC(C)CC3)cc21 [Compound 17]
Response: 53.8

---

tested on: NF54; assay: 3H-hypoxanthine 72 h assay, NF54; type: cell-based; settings: Plasmodium falciparum, NF54, read-out: Pf multidrug-resistant strain EC50 NF54
Kindly state pEC50 for each of the entries shown.
One number for each entry, as −log10 of the molar value.

Below, 3 compounds whose answers are already recorded.
CCOC(=O)c1cn(CC)c2cc(N3CCC(Cc4ccccc4)CC3)c(F)cc2c1=O ... 7.77
CCn1cc(-c2nc(C)no2)c(=O)c2cc(F)c(N3CCC(C)CC3)cc21 ... 7.92
CCOC(=O)c1cn(CC)c2cc(N3CCC(C)CC3)c(F)cc2c1=O ... 7.19

Moving on to another compound below.
Query: Identify measured pEC50 corresponding to "CCn1cc(-c2nc(C)no2)c(=O)c2cc(F)c(N3CCC(Cc4ccccc4)CC3)cc21"
Response: 8.30

---

test system: P. falciparum 3D7 parasites; assay: P. falciparum 3D7 asexual-stage parasite LDH viability assay; assay type: cell-based, Plasmodium falciparum; settings: 3D7 parasite EC50 compared to 17
Kindly state fold less active/potent than 17 for each of the entries shown.
Give bare numbers, in fold.

CCn1cc(-c2nc(C)no2)c(=O)c2cc(F)c(N3CCC(c4ccccc4)CC3)cc21 [Compound 40] ... 2

# map each compound to its fold less active/potent than 17
1. CCn1cc(-c2nc(C)no2)c(=O)c2cc(F)c(N3CCC(C(C)C)CC3)cc21 [Compound 39]
2. CCn1cc(-c2nc(C)no2)c(=O)c2cc(F)c(N3CCCC(C)C3)cc21 (centres unmarked) [Compound 34]

Response:
2
5

---

system: RF12; assay: 3H-hypoxanthine 72 h assay, RF12; assay type: cell-based; settings: Plasmodium falciparum, read-out: Pf multidrug-resistant strain EC50 RF12
endpoint-name: EC50 (nM)
One number for each entry, in nM.

Below, 3 molecules whose answers are already recorded.
CCn1cc(-c2nc(C)no2)c(=O)c2cc(F)c(N3CCC(Cc4ccccc4)CC3)cc21 [Compound 41] ... 2
CCOC(=O)c1cn(CC)c2cc(N3CCC(Cc4ccccc4)CC3)c(F)cc2c1=O [Compound 43] ... 5
CCOC(=O)c1cn(CC)c2cc(N3CCC(C)CC3)c(F)cc2c1=O [Compound 21] ... 20

Moving on to another molecule below.
Query: Identify measured EC50 corresponding to CCn1cc(-c2nc(C)no2)c(=O)c2cc(F)c(N3CCC(C)CC3)cc21 [Compound 17]
Response: 6

---

experiment: LogD at pH 7.4; assay type: physicochemical; conditions: 1-octanol/phosphate-buffered saline (1:1, v/v)
Kindly state logD at 2 h for each of the entries shown.
One number for each entry.

CCn1cc(-c2nc(C)no2)c(=O)c2cc(F)c(N3CCC(C)CC3)cc21 [Compound 17] ... 2.6
CCOC(=O)c1cn(CC)c2cc(N3CCC(Cc4ccccc4)CC3)c(F)cc2c1=O [Compound 43] ... 4.6
CCOC(=O)c1cn(CC)c2cc(N3CCC(C)CC3)c(F)cc2c1=O [Compound 21] ... 3.2

Moving on to another compound below.
Query: Identify measured logD at 2 h corresponding to CCn1cc(-c2nc(C)no2)c(=O)c2cc(F)c(N3CCC(Cc4ccccc4)CC3)cc21 [Compound 41]
Response: 4.2

---

Kindly state EC50 for each of the entries shown.
system: Pf Dd2 expressing ScDHODH; assay: ScDHODH asexual-stage assay; type: cell-based; details: Plasmodium falciparum, DD2, 72 h, read-out: Dd2 ScDHODH EC50
Answers are plain numbers, in nM.

CCn1cc(-c2nc(C)no2)c(=O)c2cc(F)c(N3CCC(C)CC3)cc21 ... 1700

Moving on to another compound below.
Query: Identify measured EC50 corresponding to "CCn1cc(-c2nc(C)no2)c(=O)c2cc(F)c(N3CCC(Cc4ccccc4)CC3)cc21"
Response: 860
